pIC50: −log10 of the molar value.
The next entries give measured pIC50 for Prostaglandin G/H synthase 1 (Ovis aries, UniProt P05979).

| sample-smiles | relation-symbol | pIC50 |
| --- | --- | --- |
| COc1cccc(C(=O)C#Cc2ccc(S(C)(=O)=O)cc2)c1 | < | 4.00 |
| CS(=O)(=O)c1ccc(C#CC(=O)c2ccc(F)cc2)cc1 | = | 4.52 |
| CS(=O)(=O)c1ccc(C#CC(=O)c2ccc(F)c(F)c2)cc1 | = | 5.51 |
| COc1cc(C(=O)C#Cc2ccc(S(C)(=O)=O)cc2)cc(OC)c1OC | < | 4.00 |
| CS(=O)(=O)c1ccc(C#CC(=O)c2ccc(C(F)(F)F)cc2)cc1 | = | 5.51 |
| CS(=O)(=O)c1ccc(C#CC(=O)c2ccc(C#N)cc2)cc1 | = | 4.50 |
| COc1ccc(C(=O)C#Cc2ccc(S(C)(=O)=O)cc2)cc1O | = | 6.00 |
| COc1cc(C(=O)C#Cc2ccc(S(C)(=O)=O)cc2)ccc1O | = | 5.96 |
| CS(=O)(=O)c1ccc(C#CC(=O)c2ccc(O)cc2)cc1 | = | 5.46 |
| CS(=O)(=O)c1ccc(C#CC(=O)c2cccc(O)c2)cc1 | < | 4.00 |
| CS(=O)(=O)c1ccc(C#CC(=O)c2ccccc2)cc1 | = | 6.00 |
| Cc1ccc(C(=O)C#Cc2ccc(S(C)(=O)=O)cc2)cc1 | < | 4.00 |

---

The next entries give measured IC50 for Seed linoleate 13S-lipoxygenase-1 (Glycine max, UniProt P08170).

| sample-smiles | experimental-target | IC50 |
| --- | --- | --- |
| COc1ccc(C(=O)C#Cc2ccc(S(C)(=O)=O)cc2)cc1 | Seed linoleate 13S-lipoxygenase-1 (Glycine max, UniProt P08170) | 3.5 µM |
| Cc1ccc(C(=O)C#Cc2ccc(S(C)(=O)=O)cc2)cc1 | Seed linoleate 13S-lipoxygenase-1 (Glycine max, UniProt P08170) | > 10 µM |
| CS(=O)(=O)c1ccc(C#CC(=O)c2ccc(F)c(F)c2)cc1 | Seed linoleate 13S-lipoxygenase-1 (Glycine max, UniProt P08170) | 3.2 µM |
| CS(=O)(=O)c1ccc(C#CC(=O)c2ccccc2)cc1 | Seed linoleate 13S-lipoxygenase-1 (Glycine max, UniProt P08170) | > 10 µM |
| CS(=O)(=O)c1ccc(C#CC(=O)c2ccc(C(F)(F)F)cc2)cc1 | Seed linoleate 13S-lipoxygenase-1 (Glycine max, UniProt P08170) | > 10 µM |
| CS(=O)(=O)c1ccc(C#CC(=O)c2ccc(O)cc2)cc1 | Seed linoleate 13S-lipoxygenase-1 (Glycine max, UniProt P08170) | 0.32 µM |

---

experimental-target: Seed linoleate 13S-lipoxygenase-1 (Glycine max, UniProt P08170)
Sequence (P08170 whole entry): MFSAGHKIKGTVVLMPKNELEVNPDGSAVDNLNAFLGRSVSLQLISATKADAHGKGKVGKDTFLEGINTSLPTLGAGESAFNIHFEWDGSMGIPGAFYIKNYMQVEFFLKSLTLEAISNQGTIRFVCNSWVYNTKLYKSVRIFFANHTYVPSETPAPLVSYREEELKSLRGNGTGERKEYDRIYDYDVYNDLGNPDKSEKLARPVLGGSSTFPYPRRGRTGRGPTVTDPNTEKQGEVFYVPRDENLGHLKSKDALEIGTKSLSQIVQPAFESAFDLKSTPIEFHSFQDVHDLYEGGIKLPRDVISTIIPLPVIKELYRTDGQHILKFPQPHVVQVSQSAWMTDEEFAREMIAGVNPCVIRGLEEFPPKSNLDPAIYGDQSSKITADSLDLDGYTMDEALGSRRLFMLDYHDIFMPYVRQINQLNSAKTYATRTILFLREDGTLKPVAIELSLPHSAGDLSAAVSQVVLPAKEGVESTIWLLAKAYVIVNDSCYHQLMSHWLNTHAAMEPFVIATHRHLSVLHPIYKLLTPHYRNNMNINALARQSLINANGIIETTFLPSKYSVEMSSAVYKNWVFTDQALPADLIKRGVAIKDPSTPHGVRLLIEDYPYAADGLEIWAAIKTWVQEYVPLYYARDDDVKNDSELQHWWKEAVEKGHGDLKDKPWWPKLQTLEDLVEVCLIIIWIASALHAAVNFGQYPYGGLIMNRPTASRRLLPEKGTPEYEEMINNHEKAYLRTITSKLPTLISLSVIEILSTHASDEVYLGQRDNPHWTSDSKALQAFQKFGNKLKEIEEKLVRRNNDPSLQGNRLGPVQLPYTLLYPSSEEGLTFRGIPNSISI
pIC50: −log10 of the molar value.

| sample-smiles | relation-symbol | pIC50 |
| --- | --- | --- |
| CS(=O)(=O)c1ccc(C#CC(=O)c2ccc(F)cc2)cc1 | < | 5.00 |
| COc1cccc(C(=O)C#Cc2ccc(S(C)(=O)=O)cc2)c1 | = | 5.05 |
| COc1cc(C(=O)C#Cc2ccc(S(C)(=O)=O)cc2)cc(OC)c1OC | = | 5.15 |
| COc1cc(C(=O)C#Cc2ccc(S(C)(=O)=O)cc2)ccc1O | < | 5.00 |
| Cc1ccc(C(=O)C#Cc2ccc(S(C)(=O)=O)cc2)cc1 | < | 5.00 |
| CS(=O)(=O)c1ccc(C#CC(=O)c2ccc(C(F)(F)F)cc2)cc1 | < | 5.00 |
| COc1ccc(C(=O)C#Cc2ccc(S(C)(=O)=O)cc2)cc1 | < | 5.00 |
| CS(=O)(=O)c1ccc(C#CC(=O)c2ccc(F)c(F)c2)cc1 | = | 6.40 |
| CS(=O)(=O)c1ccc(C#CC(=O)c2cccc(O)c2)cc1 | = | 6.52 |
| COc1ccc(C(=O)C#Cc2ccc(S(C)(=O)=O)cc2)cc1O | < | 5.00 |
| CS(=O)(=O)c1ccc(C#CC(=O)c2ccc(O)cc2)cc1 | = | 6.52 |

---

The next entries give measured log10(IC50) for Seed linoleate 13S-lipoxygenase-1 (Glycine max, UniProt P08170).
measure-name: log10(IC50) (log10 of the value in nM)

| compound | value-reported |
| --- | --- |
| O=c1cc(-c2ccc(O)c(O)c2)oc2cc(O)cc(O)c12 [LUTEOLIN] | 3.51 |
| CS(=O)(=O)c1ccc(C#CC(=O)c2ccc(F)cc2)cc1 | 3.00 |
| COc1cc(C(=O)C#Cc2ccc(S(C)(=O)=O)cc2)ccc1O | 2.00 |
| COc1ccc(C(=O)C#Cc2ccc(S(C)(=O)=O)cc2)cc1O | 2.48 |
| CS(=O)(=O)c1ccc(C#CC(=O)c2cccc(O)c2)cc1 | 2.70 |
